Test system: Trypanosoma cruzi
PROTOCOL DETAILS: In vitro percent inhibition against mouse peritoneal macrophages infected with Trypanosoma cruzi at 25 uM concentration
Format: functional
Reported inhibition at 25 µM values for the following compounds.
The reply should be a number in %, with the unit left off.

Examples with their reported inhibition at 25 µM follow.
CC(=O)Nc1nnc(-c2ncc([N+](=O)[O-])n2C)s1: 99
NC(=O)N/N=C/c1ccc([N+](=O)[O-])o1: 99
N/C(S)=N/N=C/c1ccc([N+](=O)[O-])s1: 90
Cn1c(-c2nnc(N)s2)nc(Sc2ccccc2)c1[N+](=O)[O-]: 80

GET /value?item= Cn1c([N+](=O)[O-])cnc1-c1nnc(NC(=O)CCCC(=O)NC2C(O)OC(CO)C(O)C2O)s1 (stereo not given) &field=inhibition at 25 µM returns 99

###

System: Homo sapiens (MRC-5 cells)
PROTOCOL DETAILS: Concentration that cause cytotoxicity at 6.2 uM concentration
QUANTITY KIND: inhibition at 6.2 µM (%)
The reply should be a number in %, with the unit left off.

Examples with their reported inhibition at 6.2 µM follow.
Cn1c(-c2nnc(N)s2)nc(Sc2ccccc2)c1[N+](=O)[O-]: 0
Nc1nnc(-c2ccc([N+](=O)[O-])o2)s1: 0
CC(=O)Nc1nnc(-c2ncc([N+](=O)[O-])n2C)s1: 0

Proceed to the following item.
// assay Homo sapiens (MRC-5 cells), entry N/C(S)=N/N=C/c1ccc([N+](=O)[O-])s1 , inhibition at 6.2 µM value = 0
